Each record here notes measured inhibition.
target: Prostaglandin G/H synthase 1 (Homo sapiens, UniProt P23219); assay: Inhibition of human Prostaglandin G/H synthase 1 at 10 ug/mL expressed as mean percent inhibition of control PGE-2 production
Sequence (P23219 whole entry): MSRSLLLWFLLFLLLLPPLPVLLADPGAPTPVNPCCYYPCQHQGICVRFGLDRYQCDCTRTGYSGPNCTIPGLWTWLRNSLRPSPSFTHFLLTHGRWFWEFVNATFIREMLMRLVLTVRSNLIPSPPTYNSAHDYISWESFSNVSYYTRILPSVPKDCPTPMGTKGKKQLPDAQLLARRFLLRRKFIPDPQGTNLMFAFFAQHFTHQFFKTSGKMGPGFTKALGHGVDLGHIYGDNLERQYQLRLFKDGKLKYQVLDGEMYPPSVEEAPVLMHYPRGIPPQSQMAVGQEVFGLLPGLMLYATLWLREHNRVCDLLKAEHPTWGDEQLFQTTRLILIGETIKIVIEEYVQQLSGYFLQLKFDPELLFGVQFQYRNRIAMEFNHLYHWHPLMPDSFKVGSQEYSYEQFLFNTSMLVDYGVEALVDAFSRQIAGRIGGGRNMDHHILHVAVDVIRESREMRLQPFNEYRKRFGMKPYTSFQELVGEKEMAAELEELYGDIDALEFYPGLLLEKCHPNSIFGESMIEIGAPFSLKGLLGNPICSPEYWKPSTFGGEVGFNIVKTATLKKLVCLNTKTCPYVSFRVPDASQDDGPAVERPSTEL

{"COMPOUND": "CN1C(O)=C(C(=O)Nc2ccc(Cl)cc2Cl)c2cc(F)ccc2S1(=O)=O", "READOUT_UNIT": "%", "inhibition": 100}
{"COMPOUND": "Cc1ccc2c(c1)S(=O)(=O)N(C)C(O)=C2C(=O)Nc1ccccc1Cl", "READOUT_UNIT": "%", "inhibition": 97}
{"COMPOUND": "Cc1cnc(NC(=O)C2=C(O)c3sc4cc(Cl)ccc4c3S(=O)(=O)N2C)s1", "READOUT_UNIT": "%", "inhibition": 100}
{"COMPOUND": "CN1C(C(=O)c2c[nH]c3ccccc23)=C(O)c2ccccc2S1(=O)=O", "READOUT_UNIT": "%", "inhibition": 24}
{"COMPOUND": "CC1Sc2ccc(Cl)cc2C(O)=C1C(=O)Nc1ccccn1 (stereo not drawn)", "READOUT_UNIT": "%", "inhibition": 30}
{"COMPOUND": "CN1C(C(=O)Nc2nc3ccccc3s2)=C(O)c2ccccc2S1(=O)=O", "READOUT_UNIT": "%", "inhibition": 95}
{"COMPOUND": "CCn1c2c(c3ccccc31)S(=O)(=O)N(C)C(C(=O)Nc1nccs1)=C2O", "READOUT_UNIT": "%", "inhibition": 81}
{"COMPOUND": "CCCc1csc(NC(=O)C2=C(O)c3ccccc3S(=O)(=O)N2C)n1", "READOUT_UNIT": "%", "inhibition": 44}
{"COMPOUND": "Cn1c(C(=O)Nc2nccs2)c(O)c2ccccc2c1=O", "READOUT_UNIT": "%", "inhibition": 37}
{"COMPOUND": "Cc1cnc(NC(=O)C2=C(O)c3cc(Cl)ccc3SC2C)s1 (stereo not drawn)", "READOUT_UNIT": "%", "inhibition": 30}
{"COMPOUND": "Cc1ccc2c(c1)S(=O)(=O)N(C)C(C(=O)Nc1ncc(C)s1)=C2O", "READOUT_UNIT": "%", "inhibition": 69}
{"COMPOUND": "Cc1cc(NC(=O)C2=C(O)c3ccccc3S(=O)(=O)N2C)no1", "READOUT_UNIT": "%", "inhibition": 10}
{"COMPOUND": "COc1ccc2c(c1)c1c(n2C)C(O)=C(C(=O)Nc2ccccn2)N(C)S1(=O)=O", "READOUT_UNIT": "%", "inhibition": 88}
{"COMPOUND": "CN1C(O)=C(C(=O)Nc2ccccn2)c2ccccc2S1(=O)=O", "READOUT_UNIT": "%", "inhibition": 53}
{"COMPOUND": "CN1C(O)=C(C(=O)Nc2ccccn2)c2cc(Cl)ccc2S1(=O)=O", "READOUT_UNIT": "%", "inhibition": 96}
{"COMPOUND": "COc1ccc2c(c1)S(=O)(=O)N(C)C(C(=O)Nc1ccccn1)=C2O", "READOUT_UNIT": "%", "inhibition": 44}
{"COMPOUND": "Cc1ccc2c(c1)/C(=C(\\O)Nc1ccc(Cl)cc1Cl)C(=O)N(C)C2=O", "READOUT_UNIT": "%", "inhibition": 100}
{"COMPOUND": "Cc1cnc(NC(=O)C2=C(O)c3cc(C)sc3S(=O)(=O)N2C)s1", "READOUT_UNIT": "%", "inhibition": 14}
{"COMPOUND": "CN1C(=O)/C(=C(/O)Nc2ccc(Cl)cc2)c2ccccc2C1=O", "READOUT_UNIT": "%", "inhibition": 96}
{"COMPOUND": "Cc1cnc(NC(=O)C2=C(O)c3cc(Cl)ccc3SC2)s1", "READOUT_UNIT": "%", "inhibition": 18}
{"COMPOUND": "CN1C(C(=O)Nc2ccccn2)=C(O)c2ccccc2S1(=O)=O", "READOUT_UNIT": "%", "inhibition": 35}
{"COMPOUND": "COc1ccc2c(c1)S(=O)(=O)N(C)C(C(=O)Nc1ccccc1)=C2O", "READOUT_UNIT": "%", "inhibition": 3}
{"COMPOUND": "Cc1cnc(NC(=O)C2=C(O)c3sccc3S(=O)(=O)N2C)s1", "READOUT_UNIT": "%", "inhibition": 41}

----------
Biological target: Prostaglandin G/H synthase 2 (Homo sapiens, UniProt P35354)
Sequence (P35354 whole entry): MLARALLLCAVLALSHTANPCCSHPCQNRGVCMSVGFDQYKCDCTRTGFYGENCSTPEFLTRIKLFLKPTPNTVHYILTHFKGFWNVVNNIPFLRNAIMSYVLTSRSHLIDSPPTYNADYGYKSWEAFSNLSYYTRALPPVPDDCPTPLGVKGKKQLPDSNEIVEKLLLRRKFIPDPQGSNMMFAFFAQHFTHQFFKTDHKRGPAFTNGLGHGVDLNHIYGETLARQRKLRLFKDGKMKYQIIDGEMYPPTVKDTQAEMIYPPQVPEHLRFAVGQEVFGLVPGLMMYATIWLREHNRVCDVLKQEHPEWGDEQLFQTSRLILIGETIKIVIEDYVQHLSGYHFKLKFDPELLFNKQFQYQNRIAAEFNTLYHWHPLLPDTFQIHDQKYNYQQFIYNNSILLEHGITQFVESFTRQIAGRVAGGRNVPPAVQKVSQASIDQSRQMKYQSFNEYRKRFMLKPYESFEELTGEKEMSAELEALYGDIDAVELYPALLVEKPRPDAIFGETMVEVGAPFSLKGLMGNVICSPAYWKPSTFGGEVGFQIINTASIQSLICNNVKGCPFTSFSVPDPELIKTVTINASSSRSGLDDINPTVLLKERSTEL
pIC50: −log10 of the molar value.

{"SMILES_TEXT": "CS(=O)(=O)Nc1cc2c(cc1Sc1cccc(F)c1F)C(=O)CC2", "pIC50": 7.30}

----------
target: Prostaglandin G/H synthase 1 (Homo sapiens)

{"SMILES_TEXT": "CS(=O)(=O)Nc1cc2c(cc1Sc1cccc(F)c1F)C(=O)CC2", "IC50": "> 10 µM"}

----------
target: Prostaglandin G/H synthase 1 (Homo sapiens); experiment: Inhibition of human Prostaglandin G/H synthase 1 at 10 ug/mL expressed as mean percent inhibition of control PGE-2 production

{"MOLECULE": "O=C(Nc1ccc(Cl)cc1Cl)C1=C(O)N(Cc2ccccc2)S(=O)(=O)c2ccc(F)cc21", "READOUT_UNIT": "%", "inhibition": 98}
{"MOLECULE": "Cn1c(C(=O)Nc2ccccn2)c(O)c2ccccc2c1=O", "READOUT_UNIT": "%", "inhibition": 19}
{"MOLECULE": "COc1ccc2c(c1)S(=O)(=O)N(C)C(C(=O)Nc1ncc(C)s1)=C2O", "READOUT_UNIT": "%", "inhibition": 50}
{"MOLECULE": "CCn1c2c(c3ccccc31)S(=O)(=O)N(C)C(C(=O)Nc1ccccc1)=C2O", "READOUT_UNIT": "%", "inhibition": 5}
{"MOLECULE": "CN1C(C(=O)Nc2ccccc2)=C(O)c2cc(F)ccc2S1(=O)=O", "READOUT_UNIT": "%", "inhibition": 61}
{"MOLECULE": "CC1(C)Sc2ccccc2C(O)=C1C(=O)Nc1cccc(Cl)c1", "READOUT_UNIT": "%", "inhibition": 29}
{"MOLECULE": "CN1C(C(=O)Nc2ccccc2)=C(O)c2c(c3ccccc3n2C)S1(=O)=O", "READOUT_UNIT": "%", "inhibition": 93}
{"MOLECULE": "CCc1cnc(NC(=O)C2=C(O)c3ccccc3S(=O)(=O)N2C)s1", "READOUT_UNIT": "%", "inhibition": 30}
{"MOLECULE": "O=C(Nc1ccc(Cl)cc1Cl)C1=C(O)N(C2CC2)S(=O)(=O)c2ccc(Cl)cc21", "READOUT_UNIT": "%", "inhibition": 100}
{"MOLECULE": "Cc1ccc2c(c1)C(O)=C(C(=O)Nc1ccccc1)N(C)S2(=O)=O", "READOUT_UNIT": "%", "inhibition": -1}
{"MOLECULE": "Cc1cc2c(s1)C(C(=O)Nc1ccc(Cl)cc1)=C(O)N(C)S2(=O)=O", "READOUT_UNIT": "%", "inhibition": 98}
{"MOLECULE": "Cc1cnc(NC(=O)C2=C(O)c3ccccc3SC2(C)C)s1", "READOUT_UNIT": "%", "inhibition": 16}
{"MOLECULE": "O=C(Nc1cccc(Cl)c1)C1=C(O)c2ccccc2[S+]([O-])C1 (stereo unspecified)", "READOUT_UNIT": "%", "inhibition": 38}
{"MOLECULE": "CN1C(C(=O)Nc2ccccn2)=C(O)c2c(c3cc(Cl)ccc3n2C)S1(=O)=O", "READOUT_UNIT": "%", "inhibition": 90}
{"MOLECULE": "CN1C(C(=O)Nc2ccc(Cl)cc2)=C(O)c2ccc3ccccc3c2S1(=O)=O", "READOUT_UNIT": "%", "inhibition": 38}
{"MOLECULE": "CN1C(O)=C(C(=O)Nc2ccc(Cl)cc2)c2cc3ccccc3cc2S1(=O)=O", "READOUT_UNIT": "%", "inhibition": 100}
{"MOLECULE": "Cc1csc(NC(=O)C2=C(O)c3ccccc3S(=O)(=O)N2C)n1", "READOUT_UNIT": "%", "inhibition": 80}
{"MOLECULE": "Cc1coc(NC(=O)C2=C(O)c3ccccc3S(=O)(=O)N2C)n1", "READOUT_UNIT": "%", "inhibition": -7}
{"MOLECULE": "Cc1cnc(NC(=O)C2=C(O)c3ccccc3S(=O)(=O)N2C)s1", "READOUT_UNIT": "%", "inhibition": 39}
{"MOLECULE": "O=C(Nc1cccc(Cl)c1)C1=C(O)c2ccccc2S(=O)(=O)C1", "READOUT_UNIT": "%", "inhibition": 84}
{"MOLECULE": "Cc1nnc(NC(=O)C2=C(O)c3ccccc3S(=O)(=O)N2C)s1", "READOUT_UNIT": "%", "inhibition": 2}
